The origin of these recorded values is the supplement of paper PMC3334620.

Measured on: Abf1 (UniProt P14164)
Sequence: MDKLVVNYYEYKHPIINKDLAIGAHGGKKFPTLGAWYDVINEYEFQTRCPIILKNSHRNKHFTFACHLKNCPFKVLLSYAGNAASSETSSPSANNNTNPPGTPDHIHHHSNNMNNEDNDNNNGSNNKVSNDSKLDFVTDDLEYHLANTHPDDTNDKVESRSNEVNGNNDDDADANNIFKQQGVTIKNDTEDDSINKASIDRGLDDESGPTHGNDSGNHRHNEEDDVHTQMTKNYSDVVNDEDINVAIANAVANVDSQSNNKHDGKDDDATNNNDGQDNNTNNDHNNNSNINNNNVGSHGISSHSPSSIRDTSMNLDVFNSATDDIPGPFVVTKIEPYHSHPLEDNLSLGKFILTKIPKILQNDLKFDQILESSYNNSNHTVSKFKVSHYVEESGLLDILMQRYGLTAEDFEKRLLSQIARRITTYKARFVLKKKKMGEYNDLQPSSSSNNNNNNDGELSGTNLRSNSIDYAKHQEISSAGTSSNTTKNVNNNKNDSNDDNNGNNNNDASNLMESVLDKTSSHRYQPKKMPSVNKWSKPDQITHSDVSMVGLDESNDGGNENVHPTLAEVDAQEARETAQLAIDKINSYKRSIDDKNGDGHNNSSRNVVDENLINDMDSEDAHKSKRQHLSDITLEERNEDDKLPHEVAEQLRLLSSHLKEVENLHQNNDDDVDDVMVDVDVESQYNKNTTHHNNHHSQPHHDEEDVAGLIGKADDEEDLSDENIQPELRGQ
Assay text: PBM E-score (8-mer binding enrichment) (E-score (-0.5 to 0.5)); higher = stronger / more preferred TF binding
Run conditions: protein concentration: 200 nM; construct: GST-full length
Whole data set: some 33,000 sequences, median “E-score (-0.5 to 0.5)” near -0.015, cut for the highest 2% near 0.3. The sample holds the highest values, similar sequences and a random draw of the others, so the mix is not that of the screen.
Result type: PBM E-score
Please give the numeric answer without any surrounding text.

IN: What does the record list as PBM E-score for TCAGACGA ?
OUT: 0.305

IN: What does the record list as PBM E-score for ACAGACGA ?
OUT: 0.236

IN: What does the record list as PBM E-score for TGTTCGAA ?
OUT: -0.0208

IN: What does the record list as PBM E-score for AACGATCC ?
OUT: -0.00029

IN: What does the record list as PBM E-score for ATTAGATC ?
OUT: -0.00144

IN: What does the record list as PBM E-score for ACATGACA ?
OUT: 0.256

IN: What does the record list as PBM E-score for GTGAAAAC ?
OUT: 0.138

IN: What does the record list as PBM E-score for ACGGACGA ?
OUT: 0.263

IN: What does the record list as PBM E-score for GTCGTAGA ?
OUT: 0.278

IN: What does the record list as PBM E-score for AACGCTGT ?
OUT: 0.00818

IN: What does the record list as PBM E-score for AACGATCA ?
OUT: 0.24

IN: What does the record list as PBM E-score for AACACCAC ?
OUT: 0.00166

IN: What does the record list as PBM E-score for AGCACACC ?
OUT: -0.13

IN: What does the record list as PBM E-score for AAATTGGC ?
OUT: -0.0692

IN: What does the record list as PBM E-score for CACTTTTC ?
OUT: 0.192

IN: What does the record list as PBM E-score for AGGTAATG ?
OUT: 0.0091

IN: What does the record list as PBM E-score for ATCGTAAG ?
OUT: 0.108

IN: What does the record list as PBM E-score for CCCCCAGA ?
OUT: -0.326

IN: What does the record list as PBM E-score for CGATGGCG ?
OUT: -0.0766

IN: What does the record list as PBM E-score for ACCGATAT ?
OUT: 0.0499

IN: What does the record list as PBM E-score for ATCATTAC ?
OUT: 0.262

IN: What does the record list as PBM E-score for AACGATAA ?
OUT: 0.294

IN: What does the record list as PBM E-score for ATCGTAAA ?
OUT: 0.234

IN: What does the record list as PBM E-score for ATCGTACC ?
OUT: 0.0609

IN: What does the record list as PBM E-score for CATCATGG ?
OUT: 0.101

IN: What does the record list as PBM E-score for TGATGACA ?
OUT: 0.376

IN: What does the record list as PBM E-score for TCGGACGA ?
OUT: 0.325

IN: What does the record list as PBM E-score for CATCATGC ?
OUT: 0.128

IN: What does the record list as PBM E-score for CGATGACG ?
OUT: 0.136

IN: What does the record list as PBM E-score for CTCGTACC ?
OUT: 0.184

IN: What does the record list as PBM E-score for CGATGACA ?
OUT: 0.319

IN: What does the record list as PBM E-score for GCCGTTCA ?
OUT: 0.156

IN: What does the record list as PBM E-score for AAACAACG ?
OUT: 0.0689

IN: What does the record list as PBM E-score for GCAGACGA ?
OUT: 0.174

IN: What does the record list as PBM E-score for GCATGACA ?
OUT: 0.207

IN: What does the record list as PBM E-score for ATCGTACG ?
OUT: 0.394

IN: What does the record list as PBM E-score for GGGTTACC ?
OUT: -0.0518

IN: What does the record list as PBM E-score for ATCATTAA ?
OUT: 0.307

IN: What does the record list as PBM E-score for GACGATAC ?
OUT: 0.278

IN: What does the record list as PBM E-score for AGATGACA ?
OUT: 0.316

IN: What does the record list as PBM E-score for ACGGACGG ?
OUT: 0.077

IN: What does the record list as PBM E-score for ATCGTACA ?
OUT: 0.34

IN: What does the record list as PBM E-score for AGCGATAC ?
OUT: 0.202

IN: What does the record list as PBM E-score for ATGTGAAG ?
OUT: 0.164

IN: What does the record list as PBM E-score for ATGCCACC ?
OUT: -0.148

IN: What does the record list as PBM E-score for AGCGATAG ?
OUT: 0.0445

====

Measured on: Abf1 (UniProt P14164)
Sequence: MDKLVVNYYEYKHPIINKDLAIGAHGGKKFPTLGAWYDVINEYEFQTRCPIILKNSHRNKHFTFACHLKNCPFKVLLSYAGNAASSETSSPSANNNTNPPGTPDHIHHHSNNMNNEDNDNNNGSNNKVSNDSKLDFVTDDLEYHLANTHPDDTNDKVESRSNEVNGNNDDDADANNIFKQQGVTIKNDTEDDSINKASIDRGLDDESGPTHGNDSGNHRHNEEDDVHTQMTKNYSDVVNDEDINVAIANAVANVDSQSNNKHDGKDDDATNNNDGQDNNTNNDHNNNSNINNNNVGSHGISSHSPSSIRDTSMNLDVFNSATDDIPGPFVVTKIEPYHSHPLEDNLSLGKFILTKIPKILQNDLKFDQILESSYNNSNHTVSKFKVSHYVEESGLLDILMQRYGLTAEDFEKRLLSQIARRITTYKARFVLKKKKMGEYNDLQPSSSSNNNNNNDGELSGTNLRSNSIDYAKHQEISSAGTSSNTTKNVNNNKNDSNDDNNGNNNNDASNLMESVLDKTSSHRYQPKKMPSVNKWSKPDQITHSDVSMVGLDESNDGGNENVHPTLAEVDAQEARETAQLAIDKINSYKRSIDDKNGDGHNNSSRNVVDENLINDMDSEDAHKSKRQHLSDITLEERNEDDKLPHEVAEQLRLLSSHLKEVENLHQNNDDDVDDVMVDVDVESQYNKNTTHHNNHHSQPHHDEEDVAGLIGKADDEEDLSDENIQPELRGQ
Assay text: PBM E-score (8-mer binding enrichment) (E-score (-0.5 to 0.5)); higher = stronger / more preferred TF binding
Run conditions: protein concentration: 200 nM; construct: GST-full length
In all, about 33,000 sequences were measured (“E-score (-0.5 to 0.5)”: median about -0.015, highest 2% from about 0.3 on). This is one part of a sample in which the highest values are shown more often than they occur.
Result type: PBM E-score
Please give the numeric answer without any surrounding text.

IN: What does the record list as PBM E-score for TCGATCGA ?
OUT: -0.141

IN: What does the record list as PBM E-score for AGGTAGAC ?
OUT: -0.249

IN: What does the record list as PBM E-score for CTTGTTAA ?
OUT: -0.072

IN: What does the record list as PBM E-score for CATGCGGC ?
OUT: -0.229

IN: What does the record list as PBM E-score for CAGAGTTC ?
OUT: -0.228

IN: What does the record list as PBM E-score for ACCCGGGT ?
OUT: -0.155

IN: What does the record list as PBM E-score for ACGAACGT ?
OUT: 0.289

IN: What does the record list as PBM E-score for TCGAACGA ?
OUT: 0.236

IN: What does the record list as PBM E-score for AACAGAGC ?
OUT: -0.0439

IN: What does the record list as PBM E-score for GAGTATCC ?
OUT: 0.0845

IN: What does the record list as PBM E-score for AATGCCAG ?
OUT: -0.155
